Assay: Metabolic stability in mouse liver microsomes assessed as compound remaining at 0.5 mg/mL after 0.5 hrs
Format: ADME, microsome
Conditions: read-out: Stability
test_readout: remaining at 0.5 h

**Q:** Could you tell me which remaining at 0.5 h is on file for "O=C(Nc1n[nH]c2cc(-c3ccc(O)cc3)ccc12)c1ccc(OCCN2CCOCC2)cc1" ?
**A:** 89%

====

Assay: Lipophilicity, log D of the compound
Format: physicochemical
Conditions: octanol/water
test_readout: logD

**Q:** Recorded logD for "O=C(Nc1n[nH]c2cc(-c3ccc(O)cc3)ccc12)c1ccc(OCCN2CCOCC2)cc1" , please?
**A:** 3.4

====

Assay: Tmax in C57BL/6J mouse at 30 mg/kg, ip
Type: ADME, organism-based
Conditions: in vivo
test_readout: Tmax (h)
The figure you give is taken to be in h; do not add the unit.

**Q:** // Tmax lookup, key: "O=C(Nc1n[nH]c2cc(-c3ccc(O)cc3)ccc12)c1ccc(OCCN2CCOCC2)cc1"
**A:** 1.33

Source of measurements: ChEMBL document CHEMBL4038293
